Target: hCE1 (Homo sapiens)
Sequence (P23141 18-567): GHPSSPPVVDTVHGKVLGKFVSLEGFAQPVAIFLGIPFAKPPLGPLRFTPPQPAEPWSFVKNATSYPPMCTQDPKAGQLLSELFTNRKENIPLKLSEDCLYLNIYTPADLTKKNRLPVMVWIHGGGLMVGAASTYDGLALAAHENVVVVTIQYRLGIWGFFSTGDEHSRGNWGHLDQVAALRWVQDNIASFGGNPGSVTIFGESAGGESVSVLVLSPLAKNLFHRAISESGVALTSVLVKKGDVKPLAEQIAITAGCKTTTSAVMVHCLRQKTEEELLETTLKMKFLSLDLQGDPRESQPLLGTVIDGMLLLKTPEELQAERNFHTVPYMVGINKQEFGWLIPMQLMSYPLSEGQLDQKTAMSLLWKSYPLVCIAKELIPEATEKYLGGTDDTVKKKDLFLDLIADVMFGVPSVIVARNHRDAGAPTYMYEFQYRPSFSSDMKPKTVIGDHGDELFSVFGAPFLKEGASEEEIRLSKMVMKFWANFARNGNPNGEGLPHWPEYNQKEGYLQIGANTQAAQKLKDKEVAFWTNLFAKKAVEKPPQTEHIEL
Experiment: hCE1 inhibition assay, DME hydrolysis in human liver microsomes
Assay type: biochemical
Design: tissue Celsis (Shanghai, China); host or cells: human liver microsomes (HLM)
Conditions: DME as probe substrate, HLM; averages of at least three experiments; read-out: IC50 (hCE1)
pIC50: −log10 of the molar value.
Binary classification by pIC50, with 5 as an inclusive lower bound for YES; all other cases are NO.

Below, 5 compounds whose answers are already recorded.
>  <Compound>
O=[N+]([O-])c1ccc(OP(=O)(O)Oc2ccc([N+](=O)[O-])cc2)cc1 [Compound 28, Bis-p-nitrophenyl phosphate, reference compound]

>  <Assayed system>
hCE1 (Homo sapiens)

>  <Class name>
YES

$$$$
>  <Compound>
COC(=O)C12CCC(C)(C)CC1C1=CCC3C4(C)CCC(O)C(C)(C)C4CCC3(C)C1(C)CC2 (stereo not drawn)

>  <Assayed system>
hCE1 (Homo sapiens)

>  <Class name>
YES

$$$$
>  <Compound>
CC1(C)CCC2(C(=O)O)CCC3(C)C(=CCC4C5(C)CCC(OC(=O)CCC(=O)O)C(C)(C)C5CCC43C)C2C1 (stereo not drawn)

>  <Assayed system>
hCE1 (Homo sapiens)

>  <Class name>
YES

$$$$
>  <Compound>
C=C(CCC(C(=O)O)C1C(O)CC2(C)C3=CCC4C(C)(CCC(OC(C)=O)C4(C)C)C3=CCC12C)C(C)C (stereo not drawn)

>  <Assayed system>
hCE1 (Homo sapiens)

>  <Class name>
NO

$$$$
>  <Compound>
C=C(CCC(C(=O)O)C1C(O)CC2(C)C3=CCC4C(C)(C)C(=O)CCC4(C)C3=CCC12C)C(C)C (stereo not drawn)

>  <Assayed system>
hCE1 (Homo sapiens)

>  <Class name>
NO

$$$$

Reported pIC50 at or above 5? CC(=O)OC1CCC2(C)C(CCC3(C)C2CC=C2C4CC(C)(C)CCC4(C(=O)O)CCC23C)C1(C)C (stereo not drawn)
YES

----------
Target: hCE1 (Homo sapiens, UniProt P23141)
Assay: hCE1 inhibition assay, DME hydrolysis in human liver microsomes
Format: biochemical
Parameters: tissue Celsis (Shanghai, China); host or cells: human liver microsomes (HLM)
Property: pKi
// pKi: -log10(molar conc.)

For the compound CC1CCC2(C(=O)O)CCC3(C)C(=CCC4C5(C)CCC(OC(=O)CCC(=O)O)C(C)(C)C5CCC43C)C2C1C (stereo not shown) , the measured pKi on hCE1 (Homo sapiens, UniProt P23141) was 7.90

----------
Form field: IC50 (one value per entry).
Target: hCE1 (Homo sapiens)
Assay: hCE1 inhibition assay, DME hydrolysis in human liver microsomes
Assay type: biochemical
Parameters: tissue Celsis (Shanghai, China); host or cells: human liver microsomes (HLM)
Conditions: DME as probe substrate, HLM; averages of at least three experiments; read-out: IC50 (hCE1)

Examples with answers:
>  <Molecule>
C[C@H]1[C@H](C)CC[C@]2(C(=O)O)CC[C@]3(C)C(=CC[C@@H]4[C@@]5(C)CC[C@H](O)C(C)(C)[C@@H]5CC[C@]43C)[C@H]12

>  <IC50>
0.24 µM

$$$$
>  <Molecule>
C=C(CCC(C(=O)O)C1C(O)CC2(C)C3=C(CCC12C)C1(C)CCC(OC(C)=O)C(C)(C)C1CC3)C(C)C (stereo not shown)

>  <IC50>
21.7 µM

$$$$
>  <Molecule>
COC(=O)C12CCC(C)C(C)C1C1=CCC3C4(C)CCC(=O)C(C)(C)C4CCC3(C)C1(C)CC2 (stereo not shown)

>  <IC50>
0.9 µM

$$$$

Continue with the molecule presented below.
Briefly, IC50 measured for CC(C)=CCCC(C)(O)C1CCC2(C)C1C(O)CC1C3(C)CCC(O)C(C)(C)C3CCC12C (stereo not shown) : > 500 µM

----------
Molecular target: hCE1 (Homo sapiens)
Test: Inhibition of hCE1-mediated BMBT hydrolysis in HLMs
Format: biochemical
Set-up: tissue Celsis (Shanghai, China); host or cells: human liver microsomes (HLM)
Method: The half maximal inhibitory concentration (IC50) of each compound was determined using various inhibitor concentrations under the same incubation conditions as mentioned above. The inhibition constant (Ki) values of compound 22 against hCE1 in HLM were determined using varied concentrations of DME in the presence or absence of each inhibitor. […] The inhibition kinetic type was evaluated by determining the intersection point in the Dixon and Lineweaver-Burk plots. […]
Property: IC50
Enter the number, and then the unit.

Briefly, IC50 measured for CC1CCC2(C(=O)O)CCC3(C)C(=CCC4C5(C)CCC(OC(=O)CCC(=O)O)C(C)(C)C5CCC43C)C2C1C (stereo not shown) : 30.3 nM

----------
Target: hCE1 (Homo sapiens, UniProt P23141)
Test: hCE1 inhibition assay, DME hydrolysis in human liver microsomes;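 further: carboxylesterase inhibition read out as probe hydrolysis, with DME serving as hCE1 substrate and DDAB as hCE2 substrate, in DMSO below 2% (V/V)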
Assay type: biochemical
Set-up: tissue Celsis (Shanghai, China); host or cells: human liver microsomes (HLM)
Settings: log of the experimental IC50 in μM, used for 3D-QSAR
Property: Observed Log(IC50_hCE1)
Give the figure together with its unit, number first.

>  <Compound>
CC1(C)CCC2(C(N)=O)CCC3(C)C(=CCC4C5(C)CCC(O)C(C)(C)C5CCC43C)C2C1 (stereo not drawn) [Compound 18, 3β-hydroxy-olean-12-en-28-amide]

>  <Assay result>
0.5065 μM

$$$$

Turning now to a further record.
Looking up COC(=O)C12CCC(C)(C)CC1C1=CCC3C4(C)CCC(O)C(C)(C)C4CCC3(C)C1(C)CC2 (centres unmarked) [Compound 17] , I see its Observed Log(IC50_hCE1) listed as 0.7945 μM

----------
Recorded pIC50, one value per entry.
Molecular target: hCE1 (Homo sapiens)
Assay: hCE1 inhibition assay, DME hydrolysis in human liver microsomes
Type: biochemical
Design: tissue Celsis (Shanghai, China); host or cells: human liver microsomes (HLM)
Conditions: DME as probe substrate, HLM; averages of at least three experiments; read-out: IC50 (hCE1)
Scale: negative log10 of molar concentration, which is what pIC50 denotes.

>  <Molecule>
CC1(C)CCC2(C(=O)O)CCC3(C)C(=CCC4C5(C)CCC(=O)C(C)(C)C5CCC43C)C2C1 (stereo not drawn) [Compound 15, 3-oxo-olean-12-en-28-oic acid]

>  <Property>
pIC50

>  <Assay result>
6.89

$$$$
>  <Molecule>
COC(=O)C12CCC(C)C(C)C1C1=CC(=O)C3C4(C)CCC(=O)C(C)(C)C4CCC3(C)C1(C)CC2 (stereo not drawn) [Compound 25]

>  <Property>
pIC50

>  <Assay result>
4.48

$$$$
>  <Molecule>
CC1(C)CCC2(C(N)=O)CCC3(C)C(=CCC4C5(C)CCC(O)C(C)(C)C5CCC43C)C2C1 (stereo not drawn) [Compound 18, 3β-hydroxy-olean-12-en-28-amide]

>  <Property>
pIC50

>  <Assay result>
5.49

$$$$
>  <Molecule>
C[C@H]1[C@H](C)CC[C@]2(C)CC[C@]3(C)C(=CC(=O)[C@@H]4[C@@]5(C)CC[C@@H](O)[C@](C)(C(=O)O)[C@@H]5CC[C@]43C)[C@H]12 [Compound 6, 11-keto-β-boswellic acid]

>  <Property>
pIC50

>  <Assay result>
3.91

$$$$
>  <Molecule>
CC1(C(=O)O)CCC2(C)CCC3(C)C(=CCC4C5(C)CCC(OC(=O)CCC(=O)O)C(C)(C)C5CCC43C)C2C1 (stereo not drawn) [Compound 27]

>  <Property>
pIC50

>  <Assay result>
5.16

$$$$
>  <Molecule>
CC1(C)CCC2(CO)CCC3(C)C(=CCC4C5(C)CCC(O)C(C)(C)C5CCC43C)C2C1 (stereo not drawn) [Compound 16, 3β-olean-12-ene-3,28-diol]

>  <Property>
pIC50

>  <Assay result>
5.62

$$$$
>  <Molecule>
CC1(C)CC[C@]2(C(=O)O)CC[C@]3(C)C(=CC[C@@H]4[C@@]5(C)CC[C@H](O)C(C)(C)[C@@H]5CC[C@]43C)[C@@H]2C1 [Compound 1, oleanolic acid]

>  <Property>
pIC50

>  <Assay result>
6.55

$$$$
>  <Molecule>
CC1CCC2(C(=O)O)CCC3(C)C(=CCC4C5(C)CCC(=O)C(C)(C)C5CCC43C)C2C1C (stereo not drawn) [Compound 21, 3-oxo-urs-12-en-28-oic acid]

>  <Property>
pIC50

>  <Assay result>
7.43

$$$$
>  <Molecule>
COC(=O)C12CCC(C)C(C)C1C1=CCC3C4(C)CCC(O)C(C)(C)C4CCC3(C)C1(C)CC2 (stereo not drawn) [Compound 23]

>  <Property>
pIC50

>  <Assay result>
5.74

$$$$

Lab note: next molecule to report on.
The molecule identified as CC1=C(O)C(=O)C=C2C1=CC=C1[C@@]2(C)CC[C@@]2(C)[C@@H]3C[C@](C)(C(=O)O)CC[C@]3(C)CC[C@]12C [Compound 7, celastrol] registered its pIC50 at 5.35
